# ASSAY TARGET: human IL-13 (source not stated for the assay) (human, UniProt P35225 35-146, limits assumed)
# Sequence (P35225 35-146 limits assumed): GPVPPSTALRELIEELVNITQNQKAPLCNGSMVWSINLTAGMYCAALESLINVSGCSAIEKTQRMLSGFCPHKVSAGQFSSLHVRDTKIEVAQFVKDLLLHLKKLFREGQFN
# MEASUREMENT NOTES: cell-based or functional assay
# Lookup of reported IC50, IL-13 induced eotaxin release, n = 1 keyed by entry
Reply with just the number (in nM).

Input line: Given the binder mAb 731 (antibody, V domains shown, also called sc731) VH: EVQLLESGGGLVQPGGSLRLSCAASGFTFSSYAMSWVRQAPGKGLEWVSAFSGSGGSTYYADSVKGRFTISRDNSKNTLYLQMNSLRAEDTAVYYCVQDGLGPYFYNYGMDVWGQGTTVTVSS VL: SYELTQPPSVSVSPGQTASITCSGDKLGDKYACWFQQKPGQSPVLVIYHDSKRPSGIPERFSGSNSGDTATLTISGTQAMDEADYYCQAWDSSTYVFGTGTKVTVLG , what is its reported IC50, IL-13 induced eotaxin release, n = 1?
Output line: 0.011

Input line: Try the binder mAb 643 (antibody, V domains shown) VH: EVQLVESGGGLVKPGGSLRLSCAASGFTFSNAWMSWVRQAPGKGLEWVGRIRSEIDGGTTNYAAPVKGRFTISRDDSKNTLYLQMNSLRTEDTAVYYCATDQVGAYYGDYYGMDVWGQGTTVTVSS VL: SYELTQPPSVSVSPGQTARITCSGDALPEKYAYWYQQKSGQAPVLVIYEDSKRPSGIPERFSGSSSGTMATLTISGAQVEDEADYYCHSTDSSGNHGVFGGGTKLTVLG
Output line: 0.044

Input line: Similarly, mAb 176 (antibody, V domains shown) VH: EVQLVESGGGLVKPGGSLRLSCAASGFTFSSYSMNWVRQAPGKGLEWVSYISTSNSYIYYADSVKGRFTISRDNAKNSLYLQMNSLRAEDTAVYYCARDQVGATLDAFDIWGQGTMVTVSS VL: DIQMTQSPSSLSASVGDRVTFTCRASQDITDDLGWYQQKPGKAPKRLIYAASSLQSGVPPRFSGSGSGTEFTLTISSLQPEDFATYYCLQHNSYPFTFGPGTKVDIR ?
Output line: 0.233

These measurements were taken from patent US20100047253A1.
